System: PC3 prostate tumor cell line
Experiment: Methylene Blue Growth Inhibition Assay, PC3
Format: cell-based
Conditions: Homo sapiens, PC-3, 72 h; PC3 cells, 3 days; read-out: MeB Cell Line IC50
pIC50: −log10 of the molar value. Structures can show the parent of a compound that is named as a salt.
Entries and their pIC50 values follow.

molecule	pIC50
COc1cc(Nc2ncc([N+](=O)[O-])c(Nc3ccc(O)cc3C(=O)O)n2)cc(OC)c1OC [Example 22, hydrochloride]	< 5.00
COc1cc(Nc2ncc([N+](=O)[O-])c(Nc3ccccc3C(N)=O)n2)cc(OC)c1OC [Example 3, hydrochloride]	5.00 to 6.00
COc1cc(Nc2ncc([N+](=O)[O-])c(Nc3cccc4c3OCCO4)n2)cc(OC)c1OC [Example 19, hydrochloride]	< 5.00

###

Tested on: MCF7 breast tumor cell line
Test: Methylene Blue Growth Inhibition Assay, MCF7
Type: cell-based
Conditions: Homo sapiens, 72 h; MCF7 cells, 3 days; read-out: MeB Cell Line IC50
Structures can show the parent of a compound that is named as a salt.
Item-by-item account of IC50

compound	IC50
COc1cc(Nc2ncc(C#N)c(Nc3ccccc3C(=O)c3ccc(C)cc3)n2)cc(OC)c1OC [Example 39]	1 to 10 µM
COc1cc(Nc2ncc([N+](=O)[O-])c(Nc3ccc(O)cc3C(=O)O)n2)cc(OC)c1OC [Example 22, hydrochloride]	> 10 µM
COc1cc(Nc2ncc([N+](=O)[O-])c(Nc3ccccc3C(=O)NC3CCCCC3)n2)cc(OC)c1OC [Example 34, hydrochloride]	1 to 10 µM
